molecular target: human orexin 1 receptor (Homo sapiens); assay: Human orexin 1 receptor radioligand binding; conditions: human orexin 1 receptor; averages of 2-20 runs; read-out: hOX1 Ki
pKi: −log10 of the molar value.
Observable: pKi

O=C(c1ccccc1-n1nccn1)N1C[C@H]2C[C@@H](Nc3ccc(C(F)(F)F)cn3)[C@@H]1C2	8.40

A. O=C(c1ccccc1-n1nccn1)N1C[C@H]2C[C@@H](Nc3ccc(C(F)(F)F)nc3)[C@@H]1C2
B. O=C(c1c(F)cccc1-c1ncccn1)N1C[C@@H]2CC[C@H]1[C@H](Nc1cnc(C(F)(F)F)cn1)C2
C. O=C(c1cccc(F)c1-c1ncccn1)N1C[C@H]2C[C@@H](Nc3ncc(C(F)(F)F)cc3F)[C@@H]1C2
Write the entries in order, lowest recorded pKi first. // respond by listing labels in the order requested A, B, C
(A: 6.81, B: 7.89, C: 8.30)

* * *

biological target: human orexin 1 receptor (Homo sapiens); assay: Human orexin 1 receptor radioligand binding; conditions: human orexin 1 receptor; averages of 2-20 runs; read-out: hOX1 Ki
Observable: Ki (nM)

O=C(c1cccc(F)c1-c1ncccn1)N1C[C@H]2C[C@@H](Oc3cnc(C(F)(F)F)cn3)[C@@H]1C2	22
O=C(c1ccccc1-n1nccn1)N1C[C@@H]2CC[C@H]1[C@H](Oc1ccc(Cl)cn1)C2	3
CN(c1cnc(C(F)(F)F)cn1)[C@@H]1C[C@H]2C[C@@H]1N(C(=O)c1cc(F)ccc1-c1ncccn1)C2	5
O=C(c1ccccc1-n1nccn1)N1C[C@H]2C[C@@H](Nc3ncc(C(F)(F)F)cc3F)[C@@H]1C2	3
O=C(c1cc(F)ccc1-n1nccn1)N1C[C@H]2C[C@@H](Oc3ccc(Cl)cn3)[C@@H]1C2	14
O=C(c1ccccc1-n1nccn1)N1C[C@H]2C[C@@H](Oc3ccc(C(F)(F)F)nn3)[C@@H]1C2	150
Cc1cnc(C(=O)N2C[C@@H]3CC[C@H]2[C@H](Oc2cnc(C(F)(F)F)cn2)C3)c(-c2ncccn2)c1	65
O=C(c1ccccc1-n1nccn1)N1C[C@H]2C[C@@H](Oc3ncc(C(F)(F)F)cc3F)[C@@H]1C2	15
COc1ccc(C(=O)N2C[C@H]3C[C@@H](Nc4cnc(C(F)(F)F)cn4)[C@@H]2C3)c(-n2nccn2)c1	39
O=C(c1cccc(F)c1-c1ncc(F)cn1)N1C[C@H]2C[C@@H](Oc3ccc(Cl)cn3)[C@@H]1C2	28

a. O=C(c1ccccc1-n1nccn1)N1C[C@H]2C[C@@H](Nc3ccc(Cl)cn3)[C@@H]1C2
b. O=C(c1ccc(F)cc1-c1ncccn1)N1C[C@H]2C[C@@H](Oc3ccc(Br)cn3)[C@@H]1C2
Of a and b , whose reported Ki is numerically smaller? State the label of the item chosen. a

a. O=C(c1ccccc1-n1nccn1)N1C[C@H]2C[C@@H](Oc3ccc(Cl)cn3)[C@@H]1C2
b. O=C(c1ccc(F)cc1-n1nccn1)N1C[C@H]2C[C@@H](Oc3ccc(Br)cn3)[C@@H]1C2
c. O=C(c1cc(F)ccc1-c1ncccn1)N1C[C@H]2C[C@@H](Oc3cnc(C(F)(F)F)cn3)[C@@H]1C2
d. O=C(c1cccc(F)c1-n1nccn1)N1C[C@H]2C[C@@H](Nc3ncc(C(F)(F)F)cn3)[C@@H]1C2
I would appreciate it if you could sort these 4 compounds by Ki, starting from the smallest number. Answer by listing the labels in the requested order. d, a, b, c
(d: 6 nM, a: 10 nM, b: 26 nM, c: 62 nM)

P. O=C(c1cccc(F)c1-c1ncccn1)N1C[C@H]2C[C@@H](Oc3cc(C(F)(F)F)ccn3)[C@@H]1C2
Q. Cc1ccc(-n2nccn2)c(C(=O)N2C[C@H]3C[C@@H](Nc4nc5ccccc5o4)[C@@H]2C3)n1
R. O=C(c1ccccc1-n1nccn1)N1C[C@H]2C[C@@H](Oc3ccc4cccnc4n3)[C@@H]1C2
Sort the 3 compounds by Ki; largest first, smallest last. Write the labels out in the order the request specifies. R, P, Q

P. Cc1ccc(-n2nccn2)c(C(=O)N2C[C@H]3C[C@@H](Oc4ccc(Br)cn4)[C@@H]2C3)n1
Q. O=C(c1cc(F)ccc1-n1nccn1)N1CC2CC(Nc3cnc(Cl)cn3)C1C2 (centres unmarked)
R. O=C(c1cc(F)ccc1-c1ncccn1)N1C[C@@H]2CC[C@H]1[C@H](Nc1cnc(C(F)(F)F)cn1)C2
Your job: order these 3 records by Ki, ascending. Provide your answer as the labels ordered per the instruction. R, P, Q

A. Cc1cnc(C(=O)N2C[C@H]3C[C@@H](Nc4cnc(C(F)(F)F)cn4)[C@@H]2C3)c(-n2nccn2)c1
B. O=C(c1cccnc1-n1nccn1)N1C[C@H]2C[C@@H](Oc3ccc(C(F)(F)F)cn3)[C@@H]1C2
C. Cc1ccc(-c2ncccn2)c(C(=O)N2C[C@@H]3CC[C@H]2[C@H](Oc2ccc(C(F)(F)F)cn2)C3)n1
D. Cc1ccc(C(=O)N2C[C@H]3C[C@@H](Oc4ccc(Br)cn4)[C@@H]2C3)c(-n2nccn2)n1
Rank order required: Ki, descending. Sort the labels as requested; that list is your answer. D, B, A, C

A. O=C(c1ccc(F)cc1-c1ncccn1)N1C[C@H]2C[C@@H](Nc3ncc(C(F)(F)F)cn3)[C@@H]1C2
B. O=C(c1nccnc1-c1ccccc1)N1C[C@H]2C[C@@H](Oc3ccc(C(F)(F)F)cn3)[C@@H]1C2
Determine, for A and B , which has the greater value of Ki. Reply briefly: the label of your chosen item. B
(B: 76 nM, A: 13 nM)

* * *

biological target: human orexin 2 receptor (Homo sapiens (Human)); test: Human orexin 2 receptor radioligand binding; conditions: read-out: hOX2 Ki
Here the recorded Ki is given for each entry.
I only need the number, in µM, no unit after it.

Cc1ccc(-n2nccn2)c(C(=O)N2C[C@@H]3CC[C@H]2[C@H](Oc2ccc(C(F)(F)F)cn2)C3)n1 [Example 76]	0.211

Consider now this further molecule.
Can you look up the measured Ki of O=C(c1ccccc1-n1nccn1)N1C[C@@H]2CC[C@H]1[C@H](Nc1cnc(C(F)(F)F)cn1)C2 [Example 275] for me? 0.175

* * *

target: UniProtKB P56718; assay: Rat orexin 1 receptor radioligand binding; conditions: rat orexin 1 receptor; averages of 2-20 runs; read-out: rOX1 Ki
Observable: Ki (nM)

Solved cases (8 shown):
O=C(c1cc(F)ccc1-c1ncccn1)N1C[C@H]2C[C@@H](Nc3ccc(C(F)(F)F)cn3)[C@@H]1C2	5
O=C(c1cccc(F)c1-c1ncc(F)cn1)N1C[C@@H]2CC[C@H]1[C@H](Oc1ccc(C(F)(F)F)cn1)C2	11
O=C(c1cccc(F)c1-c1ncccn1)N1C[C@H]2C[C@@H](Nc3ccc(Cl)cn3)[C@@H]1C2	4
O=C(c1c(F)cccc1-c1ncccn1)N1C[C@H]2C[C@@H](Nc3ccc(Br)cn3)[C@@H]1C2	2
Cc1ccc(-n2nccn2)c(C(=O)N2C[C@H]3C[C@@H](Nc4ncc(C(F)(F)F)cn4)[C@@H]2C3)n1	28
O=C(c1c(F)cccc1-n1nccn1)N1CC2CC(Nc3ccc(C(F)(F)F)cn3)C1C2 (centres unmarked)	6
O=C(c1cccc(F)c1-c1ncc(F)cn1)N1C[C@H]2C[C@@H](Oc3ccc(C(F)(F)F)cn3)[C@@H]1C2	15
O=C(c1cccc(F)c1-n1nccn1)N1C[C@H]2C[C@@H](Oc3ccc(Br)cn3)[C@@H]1C2	3

I. O=C(c1ccccc1-c1ncc(F)cn1)N1C[C@@H]2CC[C@H]1[C@H](Oc1ccc(C(F)(F)F)cn1)C2
II. O=C(c1cc(F)ccc1-n1nccn1)N1C[C@H]2C[C@@H](Oc3cnc(C(F)(F)F)cn3)[C@@H]1C2
Dear colleague, could you let me know whether I or II has the lower recorded Ki? Thanks. // caller expects the label of the chosen entry I
(I: 10 nM, II: 200 nM)

* * *

target: rat orexin 1 receptor (Rattus norvegicus, UniProt P56718); experiment: Rat orexin 1 receptor radioligand binding; details: read-out: rOX1 Ki
# Ki listing for each entry below
Report only the number, with the unit nM understood.

# annotated cases, reported Ki shown
Cc1ccc(-n2nccn2)c(C(=O)N2C[C@@H]3CC[C@H]2[C@H](Oc2ccc(C(F)(F)F)cn2)C3)n1 [Example 76]	4
Cc1ccc(-n2nccn2)c(C(=O)N2C[C@H]3C[C@@H](Nc4ccc(C(F)(F)F)cn4)[C@@H]2C3)n1 [Example 54]	6

Attention now shifts to the item below.
Test system rat orexin 1 receptor (Rattus norvegicus, UniProt P56718); read-out Ki; what value for O=C(c1ccccc1-n1nccn1)N1C[C@@H]2CC[C@H]1[C@H](Nc1cnc(C(F)(F)F)cn1)C2 [Example 275] ? 8

* * *

molecular target: human orexin 2 receptor (Homo sapiens (Human), UniProt O43614); assay: Human orexin 2 receptor radioligand binding; conditions: human orexin 2 receptor; averages of 2-20 runs; read-out: hOX2 Ki
Sequence (O43614 whole entry): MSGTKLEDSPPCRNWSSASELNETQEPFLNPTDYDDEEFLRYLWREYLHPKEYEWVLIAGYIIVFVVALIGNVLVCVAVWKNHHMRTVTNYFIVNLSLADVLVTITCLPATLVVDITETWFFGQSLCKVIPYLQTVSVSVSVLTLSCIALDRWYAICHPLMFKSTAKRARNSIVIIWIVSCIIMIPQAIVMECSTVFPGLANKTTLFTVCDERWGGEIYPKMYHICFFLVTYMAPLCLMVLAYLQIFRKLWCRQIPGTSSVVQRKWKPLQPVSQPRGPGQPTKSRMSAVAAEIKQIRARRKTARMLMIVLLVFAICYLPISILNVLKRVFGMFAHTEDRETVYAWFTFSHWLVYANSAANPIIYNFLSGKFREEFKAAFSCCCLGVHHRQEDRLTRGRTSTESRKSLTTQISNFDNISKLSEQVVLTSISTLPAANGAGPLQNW
Observable: Ki (µM)

A. O=C(c1cccc(F)c1-c1ncccn1)N1C[C@@H]2CC[C@H]1[C@H](Oc1ccc(Cl)cn1)C2 [Example 271]
B. Cc1nc(C(=O)N2CC3CC(Oc4ccc(C(F)(F)F)cn4)C2C3)c(-c2ccc(F)cc2)s1 (racemic) [Example 5]
C. O=C(c1ccccc1-n1nccn1)N1C[C@@H]2CC[C@H]1[C@H](Oc1ccc(Br)cn1)C2 [Example 268]
D. O=C(c1cccc(F)c1-c1ncccn1)N1C[C@H]2C[C@@H](Nc3ccc(C(F)(F)F)nn3)[C@@H]1C2 [Example 245]
E. O=C(c1ccccc1-n1nccn1)N1C[C@H]2C[C@@H](Nc3ccc(C(F)(F)F)nn3)[C@@H]1C2 [Example 242]
Arrange these 5 compounds in increasing order of Ki. Output spec: a listing of the labels in the requested order. C, A, B, E, D
